# experimentalDetails: pKa of the N-3 hydron, spectrophotometric
# Assay type: physicochemical
# experimentalSetup: buffered D2O
property: pKa
The reply should be a number, written without any unit.

Q: Recorded pKa of O=c1[nH]c(=O)n([C@@H]2O[C@H](COP(=O)(O)O)[C@@H](O)[C@H]2O)cc1F [F-UMP, 5-fluorouridine 5′-monophosphate] , please.
A: 8.37

----------
# experimentalDetails: pKa of the N-3 hydron, spectrophotometric
# Format: physicochemical
# experimentalSetup: buffered H2O
property: pKa
The reply should be a number, written without any unit.

Q: Recorded pKa of O=c1[nH]c(=O)n([C@@H]2O[C@H](COP(=O)(O)O)[C@@H](O)[C@H]2O)cc1F [F-UMP, 5-fluorouridine 5′-monophosphate] , please.
A: 7.84

----------
# experimentalDetails: Nonenzymatic C-6 deuterium exchange catalyzed by deuterioxide ion in D2O
# experimentalSetup: D2O, 25 °C
kDO, second-order rate constant for deuterioxide-ion-catalyzed deuterium exchange at C-6 values, listed per item
Note: unit M⁻¹ s⁻¹ is implicit; provide only the numeric part.

Known kDO, second-order rate constant for deuterioxide-ion-catalyzed deuterium exchange at C-6 results, listed for orientation:
>>> recordedresult("O=c1[nH]c(=O)n(C2OC(CO)C(O)C2O)cc1F (stereo not shown)")
"6.8e-05"
>>> recordedresult("O=c1[nH]c(=O)n([C@@H]2O[C@H](CO)[C@@H](O)[C@H]2O)cc1F")
1.7

Q: Recorded kDO, second-order rate constant for deuterioxide-ion-catalyzed deuterium exchange at C-6 of Cn1cc(F)c(=O)n(C)c1=O , please.
A: 0.043

Q: Would you mind doing O=c1ccn([C@@H]2O[C@H](CO)[C@@H](O)[C@H]2O)c(=O)[nH]1 as well?
A: 1.5e-08

----------
# experimentalDetails: Nonenzymatic C-6 deuterium exchange catalyzed by deuterioxide ion in D2O
# experimentalSetup: H2O, 25 °C, calculated from kDO using kDO/kHO = 2.4
kHO, second-order rate constant for proton transfer from C-6 to hydroxide ion values, listed per item
Please state the number and follow it with the unit.

Known kHO, second-order rate constant for proton transfer from C-6 to hydroxide ion results, listed for orientation:
>>> recordedresult("O=c1[nH]c(=O)n(C2OC(CO)C(O)C2O)cc1F (centres unmarked)")
"2.8e-05 M⁻¹ s⁻¹"
>>> recordedresult("O=c1ccn([C@@H]2O[C@H](CO)[C@@H](O)[C@H]2O)c(=O)[nH]1 [Uridine N-3 Anion, uridine N-3 anion]")
"6.3e-09 M⁻¹ s⁻¹"
>>> recordedresult("O=c1ccn([C@@H]2O[C@H](CO)[C@@H](O)[C@H]2O)c(=O)[nH]1 [Uridine, uridine]")
"0.00016 M⁻¹ s⁻¹"
>>> recordedresult("Cn1cc(F)c(=O)n(C)c1=O")
"0.018 M⁻¹ s⁻¹"

Below: the item to evaluate.
Q: Recorded kHO, second-order rate constant for proton transfer from C-6 to hydroxide ion of O=c1[nH]c(=O)n([C@@H]2O[C@H](CO)[C@@H](O)[C@H]2O)cc1F , please.
A: 0.71 M⁻¹ s⁻¹
